Attribution: BigSolDB 2.1

Conditions: in dichloromethane, 278.15 K
PROPERTY: solubility (mole fraction)
API doc: respond with a numeric literal and nothing else, no unit.

Give solubility (mole fraction) for the following molecule: CC1=CC(=O)c2ccccc2C1=O
0.111

---

Conditions: in n-propanol, 298.15 K
PROPERTY: solubility (mole fraction)
API doc: respond with a numeric literal and nothing else, no unit.

Give solubility (mole fraction) for the following molecule: CC1=CC(=O)c2ccccc2C1=O
0.00838

---

Settings: in methyl acetate, 298.15 K
PROPERTY: solubility (mole fraction)
API doc: respond with a numeric literal and nothing else, no unit.

Give solubility (mole fraction) for the following compound: CC1=CC(=O)c2ccccc2C1=O
0.0854

---

Settings: in isopropanol, 298.15 K
PROPERTY: solubility (mole fraction)
API doc: respond with a numeric literal and nothing else, no unit.

Give solubility (mole fraction) for the following molecule: CC1=CC(=O)c2ccccc2C1=O
0.00764

---

Settings: in cyclohexane, 288.15 K
PROPERTY: solubility (mole fraction)
API doc: respond with a numeric literal and nothing else, no unit.

Give solubility (mole fraction) for the following compound: CC1=CC(=O)c2ccccc2C1=O
0.00417

---

Conditions: in acetonitrile, 298.15 K
PROPERTY: solubility (mole fraction)
API doc: respond with a numeric literal and nothing else, no unit.

Give solubility (mole fraction) for the following compound: CC1=CC(=O)c2ccccc2C1=O
0.0403

---

Settings: in dichloromethane, 298.15 K
PROPERTY: solubility (mole fraction)

Give solubility (mole fraction) for the following compound: CC1=CC(=O)c2ccccc2C1=O
0.193

---

Settings: in cyclohexane, 283.15 K
PROPERTY: solubility (mole fraction)

Give solubility (mole fraction) for the following compound: CC1=CC(=O)c2ccccc2C1=O
0.00329

---

Details: in acetone, 313.15 K
PROPERTY: solubility (mole fraction)

Give solubility (mole fraction) for the following molecule: CC1=CC(=O)c2ccccc2C1=O
0.118

---

Details: in n-butanol, 283.15 K
PROPERTY: solubility (mole fraction)
API doc: respond with a numeric literal and nothing else, no unit.

Give solubility (mole fraction) for the following molecule: CC1=CC(=O)c2ccccc2C1=O
0.00417

---

Details: in 1,2-dichloroethane, 283.15 K
PROPERTY: solubility (mole fraction)
API doc: respond with a numeric literal and nothing else, no unit.

Give solubility (mole fraction) for the following molecule: CC1=CC(=O)c2ccccc2C1=O
0.108

---

Conditions: in isopropanol, 278.15 K
PROPERTY: solubility (mole fraction)
API doc: respond with a numeric literal and nothing else, no unit.

Give solubility (mole fraction) for the following compound: CC1=CC(=O)c2ccccc2C1=O
0.00291

---

Conditions: in methyl acetate, 288.15 K
PROPERTY: solubility (mole fraction)
API doc: respond with a numeric literal and nothing else, no unit.

Give solubility (mole fraction) for the following compound: CC1=CC(=O)c2ccccc2C1=O
0.0595

---

Settings: in methyl acetate, 313.15 K
PROPERTY: solubility (mole fraction)

Give solubility (mole fraction) for the following molecule: CC1=CC(=O)c2ccccc2C1=O
0.148

---

Conditions: in cyclohexane, 313.15 K
PROPERTY: solubility (mole fraction)
API doc: respond with a numeric literal and nothing else, no unit.

Give solubility (mole fraction) for the following molecule: CC1=CC(=O)c2ccccc2C1=O
0.0131

---

Conditions: in 1,2-dichloroethane, 293.15 K
PROPERTY: solubility (mole fraction)

Give solubility (mole fraction) for the following compound: CC1=CC(=O)c2ccccc2C1=O
0.142

---

Details: in n-butanol, 278.15 K
PROPERTY: solubility (mole fraction)

Give solubility (mole fraction) for the following compound: CC1=CC(=O)c2ccccc2C1=O
0.00314

---

Conditions: in n-propanol, 288.15 K
PROPERTY: solubility (mole fraction)
API doc: respond with a numeric literal and nothing else, no unit.

Give solubility (mole fraction) for the following compound: CC1=CC(=O)c2ccccc2C1=O
0.00564

---

Conditions: in n-butanol, 293.15 K
PROPERTY: solubility (mole fraction)
API doc: respond with a numeric literal and nothing else, no unit.

Give solubility (mole fraction) for the following molecule: CC1=CC(=O)c2ccccc2C1=O
0.00742

---

Settings: in cyclohexane, 293.15 K
PROPERTY: solubility (mole fraction)
API doc: respond with a numeric literal and nothing else, no unit.

Give solubility (mole fraction) for the following compound: CC1=CC(=O)c2ccccc2C1=O
0.00514

---

Conditions: in n-butanol, 298.15 K
PROPERTY: solubility (mole fraction)

Give solubility (mole fraction) for the following compound: CC1=CC(=O)c2ccccc2C1=O
0.00994

---

Settings: in isopropanol, 283.15 K
PROPERTY: solubility (mole fraction)
API doc: respond with a numeric literal and nothing else, no unit.

Give solubility (mole fraction) for the following molecule: CC1=CC(=O)c2ccccc2C1=O
0.00373

---

Settings: in cyclohexane, 308.15 K
PROPERTY: solubility (mole fraction)
API doc: respond with a numeric literal and nothing else, no unit.

Give solubility (mole fraction) for the following molecule: CC1=CC(=O)c2ccccc2C1=O
0.0103

---

Details: in n-butanol, 313.15 K
PROPERTY: solubility (mole fraction)
API doc: respond with a numeric literal and nothing else, no unit.

Give solubility (mole fraction) for the following compound: CC1=CC(=O)c2ccccc2C1=O
0.0223

---

Conditions: in isopropanol, 293.15 K
PROPERTY: solubility (mole fraction)
API doc: respond with a numeric literal and nothing else, no unit.

Give solubility (mole fraction) for the following compound: CC1=CC(=O)c2ccccc2C1=O
0.00588

---

Details: in acetone, 278.15 K
PROPERTY: solubility (mole fraction)
API doc: respond with a numeric literal and nothing else, no unit.

Give solubility (mole fraction) for the following compound: CC1=CC(=O)c2ccccc2C1=O
0.0305

---

Settings: in isopropanol, 313.15 K
PROPERTY: solubility (mole fraction)
API doc: respond with a numeric literal and nothing else, no unit.

Give solubility (mole fraction) for the following molecule: CC1=CC(=O)c2ccccc2C1=O
0.0153

---

Details: in isopropanol, 308.15 K
PROPERTY: solubility (mole fraction)
API doc: respond with a numeric literal and nothing else, no unit.

Give solubility (mole fraction) for the following compound: CC1=CC(=O)c2ccccc2C1=O
0.0122

---

Conditions: in acetonitrile, 288.15 K
PROPERTY: solubility (mole fraction)
API doc: respond with a numeric literal and nothing else, no unit.

Give solubility (mole fraction) for the following molecule: CC1=CC(=O)c2ccccc2C1=O
0.027

---

Settings: in acetone, 298.15 K
PROPERTY: solubility (mole fraction)
API doc: respond with a numeric literal and nothing else, no unit.

Give solubility (mole fraction) for the following molecule: CC1=CC(=O)c2ccccc2C1=O
0.0669

---

Settings: in cyclohexane, 303.15 K
PROPERTY: solubility (mole fraction)
API doc: respond with a numeric literal and nothing else, no unit.

Give solubility (mole fraction) for the following compound: CC1=CC(=O)c2ccccc2C1=O
0.00848

---

Conditions: in methyl acetate, 293.15 K
PROPERTY: solubility (mole fraction)
API doc: respond with a numeric literal and nothing else, no unit.

Give solubility (mole fraction) for the following molecule: CC1=CC(=O)c2ccccc2C1=O
0.0718

---

Conditions: in n-propanol, 303.15 K
PROPERTY: solubility (mole fraction)
API doc: respond with a numeric literal and nothing else, no unit.

Give solubility (mole fraction) for the following compound: CC1=CC(=O)c2ccccc2C1=O
0.01

---

Conditions: in isopropanol, 303.15 K
PROPERTY: solubility (mole fraction)

Give solubility (mole fraction) for the following molecule: CC1=CC(=O)c2ccccc2C1=O
0.0096

---

Details: in methyl acetate, 278.15 K
PROPERTY: solubility (mole fraction)

Give solubility (mole fraction) for the following molecule: CC1=CC(=O)c2ccccc2C1=O
0.0427

---

Details: in methanol, 288.15 K
PROPERTY: solubility (mole fraction)

Give solubility (mole fraction) for the following compound: CC1=CC(=O)c2ccccc2C1=O
0.00396

---

Conditions: in dichloromethane, 308.15 K
PROPERTY: solubility (mole fraction)
API doc: respond with a numeric literal and nothing else, no unit.

Give solubility (mole fraction) for the following molecule: CC1=CC(=O)c2ccccc2C1=O
0.247

---

Details: in 1,2-dichloroethane, 313.15 K
PROPERTY: solubility (mole fraction)
API doc: respond with a numeric literal and nothing else, no unit.

Give solubility (mole fraction) for the following compound: CC1=CC(=O)c2ccccc2C1=O
0.243

---

Conditions: in acetonitrile, 313.15 K
PROPERTY: solubility (mole fraction)
API doc: respond with a numeric literal and nothing else, no unit.

Give solubility (mole fraction) for the following compound: CC1=CC(=O)c2ccccc2C1=O
0.0737

---

Details: in 1,2-dichloroethane, 298.15 K
PROPERTY: solubility (mole fraction)

Give solubility (mole fraction) for the following molecule: CC1=CC(=O)c2ccccc2C1=O
0.159

---

Conditions: in acetone, 308.15 K
PROPERTY: solubility (mole fraction)
API doc: respond with a numeric literal and nothing else, no unit.

Give solubility (mole fraction) for the following compound: CC1=CC(=O)c2ccccc2C1=O
0.0983
